Tested on: SEM cells
Experiment: AUC of viability dose-response curve (% viability x log10 dose units); higher = less sensitive
Conditions: RPMI 5 mM glucose + 10% dialyzed FBS; 48 h
assay-metric: AUC of viability dose-response curve
Could you keep your reply to the number by itself?

{"columns": ["compound", "experimental-system", "AUC of viability dose-response curve"],
 "data": [
  ["CCC1(c2ccccc2)C(=O)NCNC1=O", "SEM cells", 452],
  ["C[C@]12COC(=O)C[C@@H]1CC[C@@H]1[C@@H]2CC[C@@]2(C)[C@H]1CC[C@]2(C)O", "SEM cells", 447],
  ["CN[C@H]1CCC2=CC(=C(OC)C(=C2C/3=C/C=C(OC)\\C(=O)/C=C13)OC)OC", "SEM cells", 148],
  ["O=C1NC(=O)/C(=C\\c2ccc(-c3ccc(F)cc3)o2)S1", "SEM cells", 457],
  ["O=C(O)C1(Cc2cccc(Nc3nccs3)n2)CCC(Oc2cccc(Cl)c2F)CC1 (stereo not drawn)", "SEM cells", 368],
  ["CCC[C@H](NC(=O)[C@@H]1[C@H]2CCC[C@H]2CN1C(=O)[C@@H](NC(=O)[C@@H](NC(=O)c1cnccn1)C1CCCCC1)C(C)(C)C)C(=O)C(=O)NC1CC1", "SEM cells", 470],
  ["O=C1NC(=O)/C(=C/c2ccc3nccc(-c4ccncc4)c3c2)S1", "SEM cells", 290],
  ["O=C1[C@H](Cc2ccc(O)cc2)N2C(=O)CCN(C(=O)NCc3ccccc3)[C@H]2CN1Cc1cccc2ccccc12", "SEM cells", 363]
]}

Record CCCc1cc(C(N)=S)ccn1 . Reported AUC of viability dose-response curve: 475

Record OC[C@@H](O)[C@@H](O)[C@H](O)[C@@H](O)CO . Reported AUC of viability dose-response curve: 452

Record COC(=O)Nc1cc(Nc2cc(NC3CC3)c3ncc(C#N)n3n2)c(Cl)c(N2CCN(C)CC2)c1 . Reported AUC of viability dose-response curve: 328

Record CC1(C)O[C@@H]2C[C@H]3[C@@H]4C[C@H](F)C5=CC(=O)C=C[C@]5(C)[C@@]4(F)[C@@H](O)C[C@]3(C)[C@]2(C(=O)CO)O1 . Reported AUC of viability dose-response curve: 291

Record C[C@]\12CC[C@H](O)CC1=C/C[C@@H]3[C@@H]2CC[C@@]\4(C)[C@H]3C\C=C4C5=CN=CC=C5 . Reported AUC of viability dose-response curve: 469

Record O=C(Nc1cc(Cl)cc2c1[nH]c1cnccc12)c1cccnc1 . Reported AUC of viability dose-response curve: 437

Record COc1cc(OC2CCN(C)CC2)ccc1Nc1ncc2c(n1)n(C1CCCC1)c(=O)n2C . Reported AUC of viability dose-response curve: 324

Record CN1CCN(C2=Nc3cc(Cl)ccc3Nc3ccccc32)CC1 . Reported AUC of viability dose-response curve: 452

Record OC[C@H]1O[C@H]([C@H](O)[C@@H]1O)N2\C=C/C(=O)NC2=O . Reported AUC of viability dose-response curve: 450

Record CC(C)c1nc(CN(C)C(=O)N[C@H](C(=O)N[C@@H](Cc2ccccc2)C[C@H](O)[C@H](Cc2ccccc2)NC(=O)OCc2cncs2)C(C)C)cs1 . Reported AUC of viability dose-response curve: 427

Each recorded value in this set is attributed to the supplement of paper PMC11451515.
